Test: Cmax in Swiss mouse at 1 mg/kg, po via gavage by LC-MS/MS analysis
Assay type: ADME, organism-based
Parameters: route oral, dose 1 mg/kg
Settings: in vivo
experimental-endpoint: Cmax (µM)

structure-string | units-of-measure | endpoint-result
CN(C)C(=O)c1ccc(Oc2nc(-c3cnc(N)s3)nc(N3CCOCC3)n2)cc1 | µM | 5.01

====

Target: Serine/threonine-protein kinase mTOR (Homo sapiens, UniProt P42345)
Experiment: Inhibition of recombinant human GST-tagged mTOR catalytic domain (1360 to 2549 residues) expressed in baculovirus expression system using GFP-4E-BP1 as substrate preincubated for 15 mins followed by substrate addition and measured after 60 mins by TR-FRET assay
experimental-endpoint: log10 IC50 (log10 of the value in nM)

structure-string | endpoint-result
CN(C)C(=O)c1ccc(Oc2nc(-c3ccc(N)nc3)nc(N3CCOCC3)n2)cc1 | 2.30
CN(C)C(=O)c1ccc(Oc2nc(-c3cccc4[nH]ncc34)nc(N3CCOCC3)n2)cc1 | 3.13
CN(C)C(=O)c1ccc(Oc2nc(-c3cnc(N)nc3)nc(N3CCOCC3)n2)cc1 | 2.98
CN(C)C(=O)c1ccc(Oc2nc(-c3ccnc4[nH]ccc34)nc(N3CCOCC3)n2)cc1 | 2.34
CN(C)C(=O)c1ccc(Oc2nc(-c3cnc(N)s3)nc(N3CCOCC3)n2)cc1 | 1.00

====

Test: AUC in Swiss mouse at 3 mg/kg, po via gavage by LC-MS/MS analysis
Assay type: ADME, organism-based
Design: dose 3 mg/kg
Settings: in vivo

structure-string | AUC (µM·h)
CN(C)C(=O)c1ccc(Oc2nc(-c3ccc(N)nc3)nc(N3CCOCC3)n2)cc1 | 10.9
CN(C)C(=O)c1ccc(Oc2nc(-c3cccc4[nH]ncc34)nc(N3CCOCC3)n2)cc1 | 5.25
CN(C)C(=O)c1ccc(Oc2nc(-c3ccnc4[nH]ccc34)nc(N3CCOCC3)n2)cc1 | 16.8
CN(C)C(=O)c1ccc(Oc2nc(-c3cnc(N)s3)nc(N3CCOCC3)n2)cc1 | 32.1

====

Test: Metabolic stability in human liver microsomes assessed as parent compound remaining at 10 uM remaining after 120 mins in presence of NADPH by HPLC analysis
Type: ADME, Microsome
Details: read-out: Stabilty

structure-string | remaining at 2 h, 10 µM [%]
CN(C)C(=O)c1ccc(Oc2nc(-c3cccc4[nH]ncc34)nc(N3CCOCC3)n2)cc1 | 100
CN(C)C(=O)c1ccc(Oc2nc(-c3ccnc4[nH]ccc34)nc(N3CCOCC3)n2)cc1 | 92
CN(C)C(=O)c1ccc(Oc2nc(-c3ccc(N)nc3)nc(N3CCOCC3)n2)cc1 | 93
CN(C)C(=O)c1ccc(Oc2nc(-c3cnc(N)s3)nc(N3CCOCC3)n2)cc1 | 98

====

System: SK-OV-3
Test: Antiproliferative activity against human SK-OV-3 cells after 48 hrs by MTT assay
Format: functional, cell-based
Conditions: SK-OV-3, 48 h
Measured EC50, listed per entry.

structure-string | units-of-measure | EC50
CN(C)C(=O)c1ccc(Oc2nc(-c3cnc(N)nc3)nc(N3CCOCC3)n2)cc1 | nM | 220
CN(C)C(=O)c1ccc(Oc2nc(-c3ccc(N)nc3)nc(N3CCOCC3)n2)cc1 | nM | 210
CN(C)C(=O)c1ccc(Oc2nc(-c3ccnc4[nH]ccc34)nc(N3CCOCC3)n2)cc1 | nM | 370
CN(C)C(=O)c1ccc(Oc2nc(-c3cccc4[nH]ncc34)nc(N3CCOCC3)n2)cc1 | nM | 520
CN(C)C(=O)c1ccc(Oc2nc(-c3cnc(N)s3)nc(N3CCOCC3)n2)cc1 | nM | 500

Reference for the values: ChEMBL document CHEMBL4699485
